Recorded values, source ChEMBL document CHEMBL1921763.

TARGET OF ASSAY: Mitogen-activated protein kinase 10 (Homo sapiens, UniProt P53779)
Sequence (P53779 whole entry): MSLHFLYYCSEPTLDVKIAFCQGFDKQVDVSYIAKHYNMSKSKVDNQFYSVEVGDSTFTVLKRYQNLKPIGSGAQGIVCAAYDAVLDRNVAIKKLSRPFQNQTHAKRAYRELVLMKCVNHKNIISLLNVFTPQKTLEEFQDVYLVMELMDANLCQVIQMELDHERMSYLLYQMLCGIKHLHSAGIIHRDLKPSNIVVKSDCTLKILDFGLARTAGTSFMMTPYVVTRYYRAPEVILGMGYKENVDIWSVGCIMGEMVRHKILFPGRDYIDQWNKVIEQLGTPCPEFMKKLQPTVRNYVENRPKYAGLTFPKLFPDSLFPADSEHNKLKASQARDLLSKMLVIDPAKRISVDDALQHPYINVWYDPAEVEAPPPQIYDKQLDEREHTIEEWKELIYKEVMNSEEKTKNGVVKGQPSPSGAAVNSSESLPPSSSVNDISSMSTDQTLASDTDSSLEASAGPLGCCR
PROCEDURE DETAILS: Inhibition of JNK3 using biotinylated-ATF2 as substrate by HTRF assay
pIC50: −log10 of the molar value.

{"STRUCTURE NOTATION": "COc1ccc(Oc2ncc(Cl)c(Nc3ccccc3C(N)=O)n2)cc1", "pIC50": 8.15}
{"STRUCTURE NOTATION": "COc1ccc(Oc2cc(Nc3ccc(Cl)cc3C(N)=O)c(C(F)(F)F)cn2)cc1", "pIC50": 7.52}
{"STRUCTURE NOTATION": "COc1ccc(Oc2cc(Nc3ccccc3C(N)=O)c(Cl)cn2)cc1", "pIC50": 7.82}
{"STRUCTURE NOTATION": "COc1ccc(Oc2cc(Nc3ccccc3-c3nnc[nH]3)c(Cl)cn2)cc1", "pIC50": 6.85}
{"STRUCTURE NOTATION": "COc1ccc(Oc2cc(Nc3cc(OC)ccc3C(N)=O)c(C(F)(F)F)cn2)cc1", "pIC50": 7.77}
{"STRUCTURE NOTATION": "COc1ccc(Oc2cc(Nc3c(F)cccc3C(N)=O)c(C(F)(F)F)cn2)cc1", "pIC50": 7.22}
{"STRUCTURE NOTATION": "NC(=O)c1ccccc1Nc1cc(Oc2ccc(-c3cccnc3)cc2)ncc1C(F)(F)F", "pIC50": 7.14}
{"STRUCTURE NOTATION": "NC(=O)c1ccccc1Nc1cc(Oc2ccc(-n3cncn3)cc2)ncc1C(F)(F)F", "pIC50": 7.10}
{"STRUCTURE NOTATION": "COc1ccc(Oc2cc(Nc3cc(F)ccc3C(N)=O)c(C(F)(F)F)cn2)cc1", "pIC50": 7.31}
{"STRUCTURE NOTATION": "COc1cccc(Oc2cc(Nc3ccccc3C(N)=O)c(C(F)(F)F)cn2)c1", "pIC50": 7.15}
{"STRUCTURE NOTATION": "COc1ccc(Oc2cc(Nc3cccc(OC)c3C(N)=O)c(C(F)(F)F)cn2)cc1", "pIC50": 5.66}
{"STRUCTURE NOTATION": "CNC(=O)c1ccccc1Nc1cc(Oc2ccc(OC)cc2)ncc1Cl", "pIC50": 6.77}
{"STRUCTURE NOTATION": "COc1ccc(Oc2cc(Nc3ccc(F)cc3C(N)=O)c(C(F)(F)F)cn2)cc1", "pIC50": 7.35}
{"STRUCTURE NOTATION": "CCOc1ccc(Oc2cc(Nc3ccccc3C(N)=O)c(C(F)(F)F)cn2)cc1", "pIC50": 6.96}
